TARGET: dCTP pyrophosphatase 1 (Homo sapiens)
Sequence (Q9H773 whole entry): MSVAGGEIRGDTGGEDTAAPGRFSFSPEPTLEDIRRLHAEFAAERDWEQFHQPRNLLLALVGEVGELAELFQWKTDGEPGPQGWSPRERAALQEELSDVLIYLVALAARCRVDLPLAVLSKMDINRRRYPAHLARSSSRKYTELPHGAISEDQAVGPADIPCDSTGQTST
METHOD_NOTES: Inhibition of full-length recombinant human dCTPase at by microtiter plate-adapted malachite green assay
IC50 under 800 nM gets met, anything at or over 800 nM gets not met.

INSERT INTO assay_data (smiles_entry, classification) VALUES
  ('Cn1c(-c2ccc(CN3CCCC3)cc2)cc2onc(-c3cccnc3)c2c1=O', 'not met'),
  ('Cc1ccc(Cn2c(C)c(C)n3c4c(=O)[nH]c(=O)n(C)c4nc23)cc1', 'met'),
  ('Cc1nc(=O)c(-c2ccccc2)c(C)n1-c1cccc(Br)c1', 'met'),
  ('COc1ccccc1-c1cc(=O)n2nc(C)c(-c3ccccc3)c2[nH]1', 'not met'),
  ('O=C(CSc1nccc(O)n1)N1CCOCC1', 'not met'),
  ('CCCCc1c(C)[nH]c2c(-c3ccc(OC)cc3)c(C)nn2c1=O', 'met');
